Form field: EC50 (one value per entry).
target: Prostaglandin E2 receptor EP2 subtype (Homo sapiens); assay: Agonist activity at human recombinant EP2 receptor expressed in HEK293 cells assessed as effect on calcium accumulation by Fluo-4 AM dye based FLIPR assay; format: functional, cell-based
Sequence (P43116 whole entry): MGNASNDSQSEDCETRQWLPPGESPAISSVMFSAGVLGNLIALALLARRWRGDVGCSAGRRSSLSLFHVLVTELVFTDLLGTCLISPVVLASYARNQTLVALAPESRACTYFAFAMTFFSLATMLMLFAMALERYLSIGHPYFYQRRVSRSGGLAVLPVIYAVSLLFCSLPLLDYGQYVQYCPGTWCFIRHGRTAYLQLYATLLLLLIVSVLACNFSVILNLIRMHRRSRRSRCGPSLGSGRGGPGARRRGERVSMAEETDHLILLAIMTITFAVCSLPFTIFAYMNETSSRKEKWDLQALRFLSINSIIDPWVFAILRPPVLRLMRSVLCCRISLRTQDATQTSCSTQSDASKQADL
The reply should be a number in µM, with the unit left off.

-- ask What does the record list as EC50 for `CCCCCC(=O)c1ccc([C@H]2[C@H](O)CC(=O)[C@@H]2C/C=C\CCCC(=O)O)cc1` ?
-- reply 0.031

-- ask Entry CCCCCC(O)c1ccc([C@H]2CC[C@@H](Cl)[C@@H]2CCCCCCCO)cc1 (some centres not stated) please
-- reply 50
